tested system: T1, MBP-AoXlnR (MBP-XlnR1-183) (Aspergillus oryzae (strain  …, UniProt Q2UD93 1-183))
T1 sequence: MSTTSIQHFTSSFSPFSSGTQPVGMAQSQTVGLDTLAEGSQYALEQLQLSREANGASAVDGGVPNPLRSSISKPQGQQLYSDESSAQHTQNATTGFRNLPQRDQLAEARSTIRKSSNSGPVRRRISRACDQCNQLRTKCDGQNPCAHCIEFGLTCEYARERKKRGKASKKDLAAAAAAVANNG
assay notes: BLI; BLI (BLItz, streptavidin sensors), Kinetics Buffer 10x (Pall-ForteBio; composition and pH not stated), room temperature, DNA immobilized, 1:1 global fit
setup conditions: protein: recombinant; label: 5' biotin on bio-polyA strand (complement of strand 1, S14 extended); blunt
Listed here are binders together with their documented pKd.
# pKd = -log10(concentration in molar units)

The measured pKd associated with egl-242 (dsDNA) DNA 1: GGAGACTCCTCTCATCTTGCTGGGCTGAAGACTCGGTCAATACCATGATACCTTTTTTTTTTTTTTTTTT DNA 2: AAAAAAAAAAAAAAAAAAGGTATCATGGTATTGACCGAGTCTTCAGCCCAGCAAGATGAGAGGAGTCTCC reads 7.39

# pKd (binder: egl-363 (dsDNA) DNA 1: CAACCCGAGGGTCGATCGACTCCGGCATTAGCTGCCCAGCAGGTATACAGCCTTTTTTTTTTTTTTTTTT DNA 2: AAAAAAAAAAAAAAAAAAGGCTGTATACCTGCTGGGCAGCTAATGCCGGAGTCGATCGACCCTCGGGTTG ) is 7.16

So, egl-617 (dsDNA) DNA 1: GCAGCGGCGAAAGGTGCAGGATGGCTGACGCTCAGTTTAATGAGCAGTGGCCTTTTTTTTTTTTTTTTTT DNA 2: AAAAAAAAAAAAAAAAAAGGCCACTGCTCATTAAACTGAGCGTCAGCCATCCTGCACCTTTCGCCGCTGC ? Its pKd was 7.32

pKd recorded for this binder, abf-687 (abf-680 in Table S1) (dsDNA) DNA 1: GCAGAAGCTCTTGCAGATCTGTCGGCTGAAGGTTTGTTTTAGGCCAAATGCCTTTTTTTTTTTTTTTTTT DNA 2: AAAAAAAAAAAAAAAAAAGGCATTTGGCCTAAAACAAACCTTCAGCCGACAGATCTGCAAGAGCTTCTGC , is 6.88

pKd recorded for this binder, abf-830 (abf-837 in Table S1) (dsDNA) DNA 1: TTAAACACATGAGACACACTCGCGGCTGAATGGTTTCGGGTTTTAGCCGGCCTTTTTTTTTTTTTTTTTT DNA 2: AAAAAAAAAAAAAAAAAAGGCCGGCTAAAACCCGAAACCATTCAGCCGCGAGTGTGTCTCATGTGTTTAA , is 6.84

Data origin, for the record: paper PMC6323846
